Cited source: patent US20230348603A1

# subject.of.test: T1, Human VSIG4-L-Fc (human)
# T1 construct: also called hVSIG4-L-Fc; hVSIG4-L
# protocol.description: BLI cross-blocking on hVSIG4-L-Fc, competitor 12A12 first
Rule for this label: Y means binding signal (nm shift) is less than 0.08 nm; N means binding signal (nm shift) is at least 0.08 nm.

binder	classification
A2 anti-VSIG4 antibody, human IgG4 (S228P) kappa (antibody, V domains shown, variable regions from U.S. Pat. Publ) VH: QVTLKESGPTLVKPTQTLTLTCTFSGISLTTSGMGVGWIRQPPGKALEWLADIFWDDNKYYNPSLKSRLTITKDTSKNQVVLTMTNMDPVDTATYYCVRVYYKNDGYFDVWGKGTTVTVSS VL: DIVLTQSPLSLPVTLGQPASISCRASKSVTTSGYSFMHWYQQRPGQSPRLLIYLASNLEPGVPDRFSGSGSGTDFTLKIFRVEAEDVGVYYCQQSGELPYTFGQGTKLEIKR	N
14F8.H6 mouse/human chimeric IgG4 (S228P) kappa (antibody, V domains shown) VH: EVHLVESGGALVKPGGSLKLSCTASGFTFSNSVMSWIRQTPEKRLEWVATIGSGGTYIYYPDSVKGRFTISRDNSKNTLFLQMTSLRSEDTALYYCARHIYGYDVVDYWGQGTTLTVST VL: DIVMTQSHRFMSTSVGDRVSITCKASHDVSNVVAWYQQKPGQSPELLIYSASYRYTGVPARFTGSGSGTDFTFTISSVQAEDLAVYFCQQHFTTPLTFGAGTSLEVRR	N
10E8.B6 mouse/human chimeric IgG4 (S228P) kappa (antibody, V domains shown) VH: EVQLQQSGPELMKPGDSVKMSCKASGYTFTDYYMDWVKQSHGKSLEWIGYIYPNIDFTTYNQKFKGKATLTVDKSSNTAYMELHSLTSEDSAVYYCTRRDLPLHGSAYYFDYWGQGTTLTVSS VL: DIVMSQSPSSLAVSAGEKVTMSCKSSQSLLNSRTRKNYLAWYQQKPGQSPKLLIYWASTRESGVPDRFTGSGSGTDFTLTISSVQAEDLAVYYCKQSYDLFTFGSGTKLEIKR	Y
5D2.C8 mouse/human chimeric IgG4 (S228P) kappa (antibody, V domains shown) VH: EVKLVESGGGLVKPGGSLKLSCAVSGFTFSNSAMSWVRQTPAKRLEWVAYISISGDNTYYPDSVKGRFTISRDNAKNTLYLQMSSLRSEDTAMYYCARRGYDYDGFTHWGQGTLVTVSA VL: DILLTQSPAILSVSPGERVSFSCRASQNIGTSIHWYQQRTNGSPRLLIKYASQSISGIPSRFSGSGSGTDFTLSINSVESEDIADYYCQQSYSWPLTFGTGTQLELKR	Y
9A10.C4 mouse/human chimeric IgG4 (S228P) kappa (antibody, V domains shown) VH: EVQLVESGGALVQPGGSLKLSCVASGFSFSNCVMSWVRQSPEKRLEWVATIGSDGSYSYYQDNVKGRFTVSRDNAKNTLYLQMSSLGSEDTALYYCGRHIYGYDVVDYWGQGTSLTVSS VL: DIVMTQSHKFMSTSVGDRVTITCKASQDVSNVVAWFQQKPGQSPKLLIYSASYRFGGVPDRFTGSGSGTDFTFTISSVQAEDLAVYYCQQHYDTPLTFGTGTTLELKR	N
EU103.2 anti-VSIG4 antibody, human IgG4 (S228P) kappa (antibody, V domains shown, variable regions from U.S. Pat. Publ) VH: QVQLQESGPGLVKPSQTLSLTCSFSGISLTTSGMGVGWIRQPPGKGLEWLADIFWDDNKYYNPSLKSRVTISVDTSKNQFSLKLSSVTAADTAVYYCVRVYYKNDGYFDVWGQGTLVTVSS VL: EIVMTQSPATLSVSPGERATLSCRASKSVTTSGYSFMHWYQQKPGQAPRLLIYLASNLEPGIPARFSGSGSGTEFTLTISSLQSEDFAVYYCQHSRELPYTFGQGTKLEIKR	N

Query: Hello, I'm reviewing records and need to know if binding signal (nm shift) of 16F6.E1 mouse/human chimeric IgG4 (S228P) kappa (antibody, V domains shown) VH: QVQLQQPGAEMVRPGASLKLSCKASGYTFTSYWMHWVKQRPGQGLEWIGKIDPSKNTTHYNQNFRDKATLTVDRSSSTAYMQLNSLTSEDSAVYFCVTWDGDFTYWGQGTLVTISA VL: NIVLTQSPPSLAVSLGQRATISCRASESVDSYGNSFMHWYQQKPGQPPKLLIYLASNLESGVPARFSGSGSRTDFTLTIDPVEADDAATYFCHQNNEDPWTFGGGTKLEIKR is below 0.08 nm. Could you check?
Response: N

Query: Hello, I'm reviewing records and need to know if binding signal (nm shift) of A1 anti-VSIG4 antibody, human IgG4 (S228P) kappa (antibody, V domains shown, variable regions from U.S. Pat. Publ) VH: QVTLKESGPTLVKPTQTLTLTCTFSGISLTTSGMGVGWIRQPPGKALEWLADIFWDDNKYYNPSLKSRLTITKDTSKNQVVLTMTNMDPVDTATYYCVRVYYKNDGYFDVWGKGTTVTVSS VL: DIVLTQSPLSLPVTLGQPASISCRASKSVTTSGYSFMHWYQQRPGQSPRLLIYLASNLEPGVPDRFSGSGSGTDFTLKISRVEAEDVGVYYCQQSGELPYTFGQGTKLEIKR is below 0.08 nm. Could you check?
Response: N
